Can you tell me kinase still bound, per cent of control for the items I'm about to list?
# testTarget: PTK6 (human) (UniProt Q13882)
# Sequence (Q13882 whole entry, looked up): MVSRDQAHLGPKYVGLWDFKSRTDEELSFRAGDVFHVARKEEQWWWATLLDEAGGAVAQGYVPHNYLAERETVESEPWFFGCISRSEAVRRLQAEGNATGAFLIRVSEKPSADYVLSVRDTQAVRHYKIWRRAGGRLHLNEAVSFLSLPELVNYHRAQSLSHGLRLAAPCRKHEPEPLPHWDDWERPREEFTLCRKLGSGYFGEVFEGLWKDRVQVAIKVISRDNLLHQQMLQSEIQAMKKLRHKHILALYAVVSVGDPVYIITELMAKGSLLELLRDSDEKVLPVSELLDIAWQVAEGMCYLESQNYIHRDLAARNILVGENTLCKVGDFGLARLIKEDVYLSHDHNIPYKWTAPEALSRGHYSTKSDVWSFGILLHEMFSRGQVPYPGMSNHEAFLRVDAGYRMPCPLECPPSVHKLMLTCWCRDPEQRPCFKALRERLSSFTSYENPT
# protocolText: KINOMEscan competition binding
# measurementSetup: compound 10.0 µM
Express your answer in %, writing the number without its unit.

Kindly note the recorded kinase still bound, per cent of control for CCN(CC)CCCCNc1ncc2cc(-c3cc(OC)cc(OC)c3)c(NC(=O)NC(C)(C)C)nc2n1 , which is 100

What the record says about COCC(=O)NC/C=C/c1ccc2ncnc(Nc3ccc(Oc4ccc(C)nc4)c(C)c3)c2c1 : kinase still bound, per cent of control is 100

Notebook: CS(=O)(=O)N1CCN(Cc2cc3nc(-c4cccc5[nH]ncc45)nc(N4CCOCC4)c3s2)CC1 , kinase still bound, per cent of control read as 100

The value of kinase still bound, per cent of control measured for the compound O=C(Nc1cccc(Nc2ncc(Br)c(NCCc3cnc[nH]3)n2)c1)N1CCCC1 turned out to be 45

Record COc1cc2ncn(-c3cc(OCc4ccccc4C(F)(F)F)c(C(N)=O)s3)c2cc1OC . Reported kinase still bound, per cent of control: 84

Per the records, this compound ( C=CC(=O)Nc1ccc(CN(C(=O)Nc2c(Cl)c(OC)cc(OC)c2Cl)c2cc(Nc3ccc(N4CCN(C)CC4)cc3)ncn2)cc1 ) has kinase still bound, per cent of control equal to 100

Briefly, kinase still bound, per cent of control measured for CCN1CCN(C(=O)Cc2ccc(Nc3ncc(F)c(Nc4ccc(C(=O)Nc5ccccc5Cl)cc4)n3)cc2)CC1 : 16

The reported value for NC(=O)Nc1cc(-c2cccc(F)c2)sc1C(=O)N[C@@H]1CCCNC1 in terms of kinase still bound, per cent of control is 1.4

The compound listed as Cc1n[nH]c2ccc(-c3cncc(OC[C@@H](N)Cc4c[nH]c5ccccc45)c3)cc12 shows kinase still bound, per cent of control equal to 100

Record O=C1NC(=O)/C(=C/c2ccc3nccc(-c4ccncc4)c3c2)S1 , field kinase still bound, per cent of control: 87

// kinase still bound, per cent of control value for COc1cc(C(=O)N2CCC(N3CCN(C)CC3)CC2)ccc1Nc1ncc2c(n1)N(C)c1ccccc1C(=O)N2C : 58

Data point: CNC(=O)c1cc(Oc2ccc(NC(=O)Nc3ccc(Cl)c(C(F)(F)F)c3)cc2)ccn1 ; kinase still bound, per cent of control = 100

// kinase still bound, per cent of control value for COc1ccc(N(C(=O)Oc2c(C)cccc2C)c2ccnc(Nc3ccc(N4CCN(C)CC4)cc3)n2)c(OC)c1 : 0

# kinase still bound, per cent of control (compound: O=c1cc(N2CCOCC2)oc2c(-c3cccc4c3sc3ccccc34)cccc12 ) is 98

According to the records, this compound C[C@@H](Oc1cc(-c2cnn(C3CCNCC3)c2)cnc1N)c1c(Cl)ccc(F)c1Cl displays kinase still bound, per cent of control of 56

The compound listed as COc1cc2ncnc(-n3nc(-c4ccccn4)nc3N)c2cc1OC has a reported kinase still bound, per cent of control of 51

Form: compound = C=CC(=O)Nc1cc(-n2c(=O)ccc3cnc4ccc(-c5cn[nH]c5)cc4c32)ccc1C ; kinase still bound, per cent of control = 100

Field kinase still bound, per cent of control (entry CN(C)C/C=C/C(=O)Nc1ccc(C(=O)Nc2cccc(Nc3nccc(-c4cccnc4)n3)c2)cc1 ) reads 100

Sure, the documented kinase still bound, per cent of control for N#CCNC(=O)c1ccc(-c2ccnc(Nc3ccc(N4CCOCC4)cc3)n2)cc1 is 100
